Test system: Rattus norvegicus
Assay: Antiinflammatory activity against albino rat assessed as inhibition of carrageenan-induced paw edema at 0.28 mmol/kg, po administered 30 mins prior to carrageenan challenge measured after 3 hrs relative to indomethacin
Format: functional
Design: scale not given: the % may be the effect or the level left
quantity: Activity (%)

>>> df
                               given_smiles      tested_system  quantity  measurement_units  recorded_number
0  CC(=O)c1ccc(NC(=O)c2nc(-c3ccccc3)n(-c3ccc(S(N)(=O)=O)cc3)n2)cc1  Rattus norvegicus  Activity                  %               92
1  NS(=O)(=O)c1ccc(-n2nc(C(=O)NCc3ccccc3)nc2-c2ccccc2)cc1  Rattus norvegicus  Activity                  %               73
2  COc1ccc(NC(=O)c2nc(-c3ccccc3)n(-c3ccc(S(N)(=O)=O)cc3)n2)cc1  Rattus norvegicus  Activity                  %               99
3  COc1ccc2c(c1)c(CC(=O)O)c(C)n2C(=O)c1ccc(Cl)cc1  Rattus norvegicus  Activity                  %              100
4  NC(=O)c1nc(-c2ccccc2)n(-c2ccc(S(N)(=O)=O)cc2)n1  Rattus norvegicus  Activity                  %               66
5  CC(C)NC(=O)c1nc(-c2ccccc2)n(-c2ccc(S(N)(=O)=O)cc2)n1  Rattus norvegicus  Activity                  %               70
6  COC(=O)c1nc(-c2ccccc2)n(-c2ccc(S(N)(=O)=O)cc2)n1  Rattus norvegicus  Activity                  %               87
7  COc1ccc(NC(=O)c2nc(-c3ccccc3)n(-c3ccc(S(N)(=O)=O)cc3)n2)cc1OC  Rattus norvegicus  Activity                  %               91
8  NNC(=O)c1nc(-c2ccccc2)n(-c2ccc(S(N)(=O)=O)cc2)n1  Rattus norvegicus  Activity                  %               76
